- Measurement target: Plasmepsin V (PmV) (Plasmodium falciparum)
- Construct: PmV was purified directly from parasites; made in house
- Sequence (Q8I6Z5 whole entry): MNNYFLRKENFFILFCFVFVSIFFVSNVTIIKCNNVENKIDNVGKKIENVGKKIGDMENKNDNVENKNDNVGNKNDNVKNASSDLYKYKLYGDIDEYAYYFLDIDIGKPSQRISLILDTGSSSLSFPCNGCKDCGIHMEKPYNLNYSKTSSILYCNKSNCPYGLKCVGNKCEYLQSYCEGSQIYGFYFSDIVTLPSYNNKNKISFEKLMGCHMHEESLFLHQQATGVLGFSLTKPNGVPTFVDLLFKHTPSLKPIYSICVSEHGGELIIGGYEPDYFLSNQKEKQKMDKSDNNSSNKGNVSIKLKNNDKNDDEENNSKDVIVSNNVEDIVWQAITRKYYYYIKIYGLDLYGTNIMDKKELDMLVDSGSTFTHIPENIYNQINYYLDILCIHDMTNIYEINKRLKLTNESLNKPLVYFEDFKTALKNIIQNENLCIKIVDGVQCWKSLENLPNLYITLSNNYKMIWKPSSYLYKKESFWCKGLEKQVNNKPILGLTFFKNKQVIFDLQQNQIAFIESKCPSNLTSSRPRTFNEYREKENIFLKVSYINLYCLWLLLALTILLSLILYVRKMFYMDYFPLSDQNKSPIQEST
- Experiment notes: PmV inhibition, fluorimetric PExEl cleavage assay
- Assay type: biochemical
- Measurement setup: 3 μM substrate; read-out: IC50
Metric name: IC50 (nM)

Molecule	Val
CC(C)C[C@H](NC(=O)[C@@H](N)CCCNC(=N)N)C(=O)N[C@@H](CC(C)C)C(O)CN[C@@H](C)C(=O)N[C@@H](CCC(=O)O)C(=O)N[C@@H](C)C(N)=O (mixture of isomers) [Compound 1]	0.367

---

Record: Ki reported on UniProt Q8I6Z5.
Metric name: Ki

Molecule	Val
CC(C)C[C@H](NC(=O)[C@@H](N)Cc1ccc(O)cc1)C(=O)N[C@@H](CC(C)C)[C@@H](O)CN[C@@H](C)C(=O)N[C@@H](CCC(=O)O)C(=O)N[C@@H](C)C(N)=O	2510 nM
CC(C)C[C@H](NC(=O)[C@@H](N)CCCNC(=N)N)C(=O)N[C@@H](CC(C)C)C(O)CN[C@@H](C)C(=O)N[C@@H](CCC(=O)O)C(=O)N[C@@H](C)C(=O)O (mixture of isomers)	0.7 nM
CC(C)C[C@H](NC(=O)[C@@H](N)Cc1c[nH]c2ccccc12)C(=O)N[C@@H](CC(C)C)[C@@H](O)CN[C@@H](Cc1ccc(O)cc1)C(=O)N[C@@H](CCC(N)=O)C(=O)N[C@@H](C)C(N)=O [Compound 21a]	673 nM
CC(C)C[C@H](NC(=O)[C@@H](N)CCCNC(=N)N)C(=O)N[C@@H](CC(C)C)[C@@H](O)CN[C@@H](C)C(=O)N[C@@H](CCC(N)=O)C(=O)O [Compound 24a]	8.9 nM
CC(C)C[C@H](NC(=O)[C@H](CO)NC(=O)[C@@H](N)CCCNC(=N)N)C(O)CN[C@@H](Cc1ccc(O)cc1)C(=O)N[C@@H](CCC(=O)O)C(=O)N[C@@H](C)C(N)=O (mixture of isomers)	12.4 nM

---

- Measurement target: Plasmepsin V (PmV) (Plasmodium falciparum)
- Construct: PmV was purified directly from parasites; made in house
- Experiment notes: PmV inhibition, fluorimetric PExEl cleavage assay
- Type: biochemical
- Measurement setup: 3 μM HRPII-PExEl substrate; averages of not less than three inhibition curves; read-out: IC50
pIC50: −log10 of the molar value.
Decide using pIC50: a value greater than or equal to 6 is 1.0, a smaller one is 0.0.

Compound	Classification
CC(C)C[C@H](NC(=O)[C@@H](N)Cc1c[nH]cn1)C(=O)N[C@@H](CC(C)C)[C@@H](O)CN[C@@H](Cc1ccc(O)cc1)C(=O)N[C@@H](CCC(N)=O)C(=O)N[C@@H](C)C(N)=O [Compound 20a]	0.0
CC(C)C[C@H](NC(=O)[C@@H](N)CCCNC(=N)N)C(=O)N[C@@H](CC(C)C)[C@@H](O)CN[C@@H](Cc1ccc(O)cc1)C(=O)N[C@@H](CCC(N)=O)C(=O)N[C@@H](C)C(N)=O [Compound 9a]	1.0
CC(C)C[C@H](NC(=O)[C@@H](N)CCCCN)C(=O)N[C@@H](CC(C)C)C(O)CN[C@@H](C)C(=O)N[C@@H](CCC(=O)O)C(N)=O (mixture of isomers) [Compound 29]	0.0
CC(C)C[C@H](NC(=O)[C@@H](N)CCCNC(=N)N)C(=O)N[C@@H](CC(C)C)C(O)CN[C@@H](C)C(=O)N[C@@H](CCC(N)=O)C(N)=O (mixture of isomers) [Compound 23]	1.0
CC(C)C[C@H](NC(=O)[C@@H](N)Cc1c[nH]cn1)C(=O)N[C@@H](CC(C)C)[C@@H](O)CN[C@@H](C)C(=O)N[C@@H](CCC(=O)O)C(=O)N[C@@H](C)C(N)=O [Compound 14a]	0.0
CC(C)C[C@H](NC(=O)[C@@H](N)CCCNC(=N)N)C(=O)N[C@@H](CC(C)C)C(O)CN[C@@H](C)C(=O)N[C@@H](CCC(=O)O)C(N)=O (mixture of isomers) [Compound 22]	1.0
CC(C)C[C@H](NC(=O)[C@@H](N)Cc1c[nH]c2ccccc12)C(=O)N[C@@H](CC(C)C)[C@@H](O)CN[C@@H](C)C(=O)N[C@@H](CCC(=O)O)C(=O)N[C@@H](C)C(N)=O [Compound 15a]	0.0
CC(C)C[C@H](NC(=O)[C@H](C)NC(=O)[C@@H](N)CCCNC(=N)N)[C@@H](O)CN[C@@H](Cc1ccc(O)cc1)C(=O)N[C@@H](CCC(=O)O)C(=O)N[C@@H](C)C(N)=O [Compound 11a]	1.0
CC(C)C[C@H](NC(=O)[C@@H](N)CCCNC(=N)N)C(=O)N[C@@H](CC(C)C)C(O)CN[C@@H](C)C(=O)N[C@@H](CCC(=O)O)C(=O)N[C@@H](C)C(N)=O (mixture of isomers) [Compound 1]	1.0
